Biological target: Yer184c (UniProt P39961)
Sequence: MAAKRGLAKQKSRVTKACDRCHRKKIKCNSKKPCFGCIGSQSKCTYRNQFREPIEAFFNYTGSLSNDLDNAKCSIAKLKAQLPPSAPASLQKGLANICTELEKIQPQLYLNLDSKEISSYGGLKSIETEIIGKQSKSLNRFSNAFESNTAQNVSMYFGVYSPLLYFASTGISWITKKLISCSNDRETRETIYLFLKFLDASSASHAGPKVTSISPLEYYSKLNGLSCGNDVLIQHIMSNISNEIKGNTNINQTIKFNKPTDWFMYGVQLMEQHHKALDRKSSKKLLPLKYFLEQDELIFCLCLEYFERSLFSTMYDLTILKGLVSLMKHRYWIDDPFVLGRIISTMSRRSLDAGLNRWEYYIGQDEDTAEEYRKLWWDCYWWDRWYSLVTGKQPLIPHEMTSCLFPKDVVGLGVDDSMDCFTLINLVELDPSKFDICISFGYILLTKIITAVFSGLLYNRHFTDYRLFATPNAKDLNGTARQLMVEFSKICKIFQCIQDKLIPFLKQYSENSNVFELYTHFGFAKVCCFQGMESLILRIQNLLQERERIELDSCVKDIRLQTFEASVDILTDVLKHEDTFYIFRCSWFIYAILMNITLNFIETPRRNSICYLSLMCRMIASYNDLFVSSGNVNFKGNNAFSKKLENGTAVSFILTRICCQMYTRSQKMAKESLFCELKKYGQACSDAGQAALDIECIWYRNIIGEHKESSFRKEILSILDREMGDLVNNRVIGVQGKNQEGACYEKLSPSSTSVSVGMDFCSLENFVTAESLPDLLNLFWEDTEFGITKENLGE
Assay: PBM E-score (8-mer binding enrichment) (E-score (-0.5 to 0.5)); higher = stronger / more preferred TF binding
Conditions: protein concentration: 100 nM; construct: GST-full length
The full ranking holds about 33,000 sequences; the median of “E-score (-0.5 to 0.5)” is about -0.016, and the highest 2% start at about 0.3. Only a selection was taken, and the highest values are over-represented in it overall.
Field: class. Source value: PBM E-score. Ranges: category 1 (below 0.04), category 2 (0.04 to below 0.2), category 3 (0.2 or more)

Example results:
TCGGCGAA = category 3
ACGGGAAA = category 2
GCGGCGTA = category 1
CCATTAAG = category 1
TGACGGAA = category 2

Ask: Entry `CCACAGTA` belongs to which category?
Reply: category 1

Ask: Entry `CCGGGGAA` belongs to which category?
Reply: category 3

Ask: Entry `CCGGCGGC` belongs to which category?
Reply: category 3

Ask: Entry `GCGGCGAA` belongs to which category?
Reply: category 3

Ask: Entry `ATTCGCCA` belongs to which category?
Reply: category 1

Ask: Entry `TGCCGGAA` belongs to which category?
Reply: category 3

Ask: Entry `TGCCGTAA` belongs to which category?
Reply: category 1

Ask: Entry `ATCTCTTC` belongs to which category?
Reply: category 2

Ask: Entry `GACTCAAC` belongs to which category?
Reply: category 1

Ask: Entry `GCGGCGGA` belongs to which category?
Reply: category 2
